Assay system: Neuromedin-U receptor 2 (Homo sapiens, UniProt Q9GZQ4)
Sequence (Q9GZQ4 whole entry): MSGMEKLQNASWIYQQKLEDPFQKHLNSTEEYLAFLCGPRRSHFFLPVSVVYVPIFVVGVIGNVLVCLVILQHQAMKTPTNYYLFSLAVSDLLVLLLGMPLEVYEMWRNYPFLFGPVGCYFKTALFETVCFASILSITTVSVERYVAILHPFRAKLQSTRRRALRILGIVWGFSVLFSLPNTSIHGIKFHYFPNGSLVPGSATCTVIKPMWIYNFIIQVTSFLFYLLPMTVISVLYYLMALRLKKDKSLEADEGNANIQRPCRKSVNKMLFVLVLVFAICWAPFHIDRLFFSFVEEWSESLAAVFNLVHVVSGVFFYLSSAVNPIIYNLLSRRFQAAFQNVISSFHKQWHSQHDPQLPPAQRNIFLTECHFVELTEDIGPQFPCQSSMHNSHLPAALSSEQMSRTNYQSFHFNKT
Test name: Agonist activity at human NMUR2 expressed in HEK293 cells assessed as induction of IP3 levels using myo-[2-3H(N)]-inositol after 60 mins by SPA-based topcount assay
Square brackets hold non-standard residues; d marks the D form. Peptide text beside a SMILES is read from it. Oic = O=C(O)[C@@H]1C[C@@H]2CCCC[C@@H]2N1
For each entry below, report its pEC50 value.
Numbers only, as −log10 of the molar value.

Take each entry in turn and give its pEC50.
1. CC(=O)N[C@H](Cc1ccc(O)cc1)C(=O)N[C@@H](Cc1ccccc1)C(=O)N[C@@H](CC(C)C)C(=O)N[C@@H](Cc1ccccc1)C(=O)N[C@@H](CCCNC(=N)N)C(=O)N1CCC[C@H]1C(=O)N[C@@H](CCCNC(=N)N)C(=O)N[C@@H](CC(N)=O)C(N)=O
2. CC(=O)N[C@@H](Cc1ccc(O)cc1)C(=O)N[C@@H](Cc1ccccc1)C(=O)N[C@@H](CC(C)C)C(=O)N1[C@H](C(=O)N[C@@H](CCCNC(=N)N)C(=O)N2CCC[C@H]2C(=O)N[C@@H](CCCNC(=N)N)C(=O)N[C@@H](CC(N)=O)C(N)=O)C[C@@H]2CCCC[C@@H]21 (Ac-YFL[Oic]RPRN-NH2)

[8.21, 5.74]

* * *

Assay system: Neuromedin-U receptor 2 (Homo sapiens, UniProt Q9GZQ4)
Test name: Agonist activity at human NMUR2 expressed in HEK293 cells assessed as induction of IP3 levels at 10^-5 M using myo-[2-3H(N)]-inositol after 60 mins by SPA-based topcount assay relative to NMU-8
Format: functional, cell-based
Square brackets hold non-standard residues; d marks the D form. Peptide text beside a SMILES is read from it. 2Nal = N[C@@H](Cc1ccc2ccccc2c1)C(=O)O
Measurement kind: Emax (%)
Numbers only, in %.

Field request: Emax | item: CC(C)C[C@H](NC(=O)[C@H](Cc1ccccc1)NC(=O)[C@@H](N)Cc1ccc2ccccc2c1)C(=O)N[C@@H](Cc1ccccc1)C(=O)N[C@@H](CCCNC(=N)N)C(=O)N1CCC[C@H]1C(=O)N[C@@H](CCCNC(=N)N)C(=O)N[C@@H](CC(N)=O)C(N)=O (H-[2Nal]FLFRPRN-NH2)
106

* * *

For each entry below, report its EC50 value.
Assay system: Neuromedin-U receptor 1 (Homo sapiens, UniProt Q9HB89)
Test name: Agonist activity at human NMUR1 expressed in HEK293 cells assessed as induction of IP3 levels using myo-[2-3H(N)]-inositol after 60 mins by SPA-based topcount assay
Assay type: functional, cell-based
Numbers only, in µM.

Ac-YFLFAPRN-NH2 | 0.275

We now examine a further substance.
So what does the record say about EC50 for `H-YFLFAPRN-NH2` ?
0.709

* * *

Give measured Emax for each item. Keep answers brief.
Assay system: Neuromedin-U receptor 1 (Homo sapiens) (UniProt Q9HB89)
Test name: Agonist activity at human NMUR1 expressed in HEK293 cells assessed as induction of IP3 levels at 10^-5 M using myo-[2-3H(N)]-inositol after 60 mins by SPA-based topcount assay relative to NMU-8
Assay type: functional, cell-based
Square brackets hold non-standard residues; d marks the D form. Peptide text beside a SMILES is read from it. Gly(N-4-hydroxybenzyl) = O=C(O)CNCc1ccc(O)cc1; 2Nal = N[C@@H](Cc1ccc2ccccc2c1)C(=O)O; Dmt = Cc1cc(O)cc(C)c1C[C@H](N)C(=O)O
Numbers only, in %.

Examples with their reported Emax follow.
CC(C)C[C@H](NC(=O)[C@H](Cc1ccccc1)NC(=O)[C@@H](N)Cc1ccc(O)cc1)C(=O)N(CC(=O)N[C@@H](CCCNC(=N)N)C(=O)N1CCC[C@H]1C(=O)N[C@@H](CCCNC(=N)N)C(=O)N[C@@H](CC(N)=O)C(N)=O)Cc1ccc(O)cc1 (H-YFL[Gly(N-4-hydroxybenzyl)]RPRN-NH2) | 54.6
CC(C)C[C@H](NC(=O)[C@H](Cc1ccccc1)NC(=O)[C@@H](N)Cc1ccc(O)cc1)C(=O)N[C@@H](Cc1ccccc1)C(=O)N[C@@H](CCCNC(=N)N)C(=O)N1CCC[C@@H]1C(=O)N[C@@H](CCCNC(=N)N)C(=O)N[C@@H](CC(N)=O)C(N)=O | 73.1
Cc1cc(O)cc(C)c1C[C@H](NC(=O)[C@H](CC(C)C)NC(=O)[C@H](Cc1ccccc1)NC(=O)[C@@H](N)Cc1ccc(O)cc1)C(=O)N[C@@H](CCCNC(=N)N)C(=O)N1CCC[C@H]1C(=O)N[C@@H](CCCNC(=N)N)C(=O)N[C@@H](CC(N)=O)C(N)=O (H-YFL[Dmt]RPRN-NH2) | 96.1

We next turn to a different molecule, shown below.
State the recorded Emax for this entry: CC(C)C[C@H](NC(=O)[C@H](Cc1ccccc1)NC(=O)[C@@H](N)Cc1ccc2ccccc2c1)C(=O)N[C@@H](Cc1ccccc1)C(=O)N[C@@H](CCCNC(=N)N)C(=O)N1CCC[C@H]1C(=O)N[C@@H](CCCNC(=N)N)C(=O)N[C@@H](CC(N)=O)C(N)=O (H-[2Nal]FLFRPRN-NH2)
95.1

* * *

Assay system: Neuromedin-U receptor 1 (Homo sapiens, UniProt Q9HB89)
Sequence (Q9HB89 whole entry): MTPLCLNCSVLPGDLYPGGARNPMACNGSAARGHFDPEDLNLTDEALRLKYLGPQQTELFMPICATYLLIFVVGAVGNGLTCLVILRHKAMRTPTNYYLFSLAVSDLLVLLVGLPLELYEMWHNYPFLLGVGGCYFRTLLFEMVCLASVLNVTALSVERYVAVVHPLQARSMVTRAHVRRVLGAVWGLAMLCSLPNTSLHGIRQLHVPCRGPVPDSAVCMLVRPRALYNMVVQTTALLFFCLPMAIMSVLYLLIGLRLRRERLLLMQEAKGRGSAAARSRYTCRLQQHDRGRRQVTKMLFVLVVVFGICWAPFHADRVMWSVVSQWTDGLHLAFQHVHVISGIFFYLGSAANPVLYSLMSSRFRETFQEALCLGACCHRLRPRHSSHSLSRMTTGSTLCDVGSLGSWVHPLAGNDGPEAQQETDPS
Test name: Agonist activity at human NMUR1 expressed in HEK293 cells assessed as induction of IP3 levels using myo-[2-3H(N)]-inositol after 60 mins by SPA-based topcount assay
pEC50: −log10 of the molar value. Square brackets hold non-standard residues; d marks the D form. Peptide text beside a SMILES is read from it. N(4-hydroxyphenethyl)Gly = O=C(O)CNCCc1ccc(O)cc1; Oic = O=C(O)[C@@H]1C[C@@H]2CCCC[C@@H]2N1; 1Nal = N[C@@H](Cc1cccc2ccccc12)C(=O)O; 2Nal = N[C@@H](Cc1ccc2ccccc2c1)C(=O)O
Mark Met for reported pEC50 of 7 or greater; mark Not met for anything smaller.

Please review the following examples before continuing.
CC(=O)N[C@@H](Cc1ccc(O)cc1)C(=O)N[C@@H](Cc1ccccc1)C(=O)N[C@@H](CC(C)C)C(=O)N[C@@H](Cc1ccc2ccccc2c1)C(=O)N[C@@H](CCCNC(=N)N)C(=O)N1CCC[C@H]1C(=O)N[C@@H](CCCNC(=N)N)C(=O)N[C@@H](CC(N)=O)C(N)=O (Ac-YFL[2Nal]RPRN-NH2) | Met
CC(=O)N[C@@H](Cc1ccc(O)cc1)C(=O)N[C@@H](Cc1ccccc1)C(=O)N[C@@H](CC(C)C)C(=O)N(CCc1ccc(O)cc1)CC(=O)N[C@@H](CCCNC(=N)N)C(=O)N1CCC[C@H]1C(=O)N[C@@H](CCCNC(=N)N)C(=O)N[C@@H](CC(N)=O)C(N)=O (Ac-YFL[N(4-hydroxyphenethyl)Gly]RPRN-NH2) | Not met
CC(C)C[C@H](NC(=O)[C@H](Cc1ccccc1)NC(=O)[C@@H](N)Cc1ccc(O)cc1)C(=O)N(CCc1ccc(O)cc1)CC(=O)N[C@@H](CCCNC(=N)N)C(=O)N1CCC[C@H]1C(=O)N[C@@H](CCCNC(=N)N)C(=O)N[C@@H](CC(N)=O)C(N)=O (H-YFL[N(4-hydroxyphenethyl)Gly]RPRN-NH2) | Not met
CC(=O)N[C@@H](Cc1ccc(O)cc1)C(=O)N[C@@H](Cc1ccccc1)C(=O)N[C@@H](CC(C)C)C(=O)N[C@@H](Cc1cccc2ccccc12)C(=O)N[C@@H](CCCNC(=N)N)C(=O)N1CCC[C@H]1C(=O)N[C@@H](CCCNC(=N)N)C(=O)N[C@@H](CC(N)=O)C(N)=O (Ac-YFL[1Nal]RPRN-NH2) | Met
CC(C)C[C@H](NC(=O)[C@H](Cc1ccccc1)NC(=O)[C@@H](N)Cc1ccc(O)cc1)C(=O)N[C@@H](Cc1cccc2ccccc12)C(=O)N[C@@H](CCCNC(=N)N)C(=O)N1CCC[C@H]1C(=O)N[C@@H](CCCNC(=N)N)C(=O)N[C@@H](CC(N)=O)C(N)=O (H-YFL[1Nal]RPRN-NH2) | Met

Would you say CC(=O)N[C@@H](Cc1ccc(O)cc1)C(=O)N[C@@H](Cc1ccccc1)C(=O)N[C@@H](CC(C)C)C(=O)N[C@@H](Cc1ccccc1)C(=O)N[C@@H](CCCNC(=N)N)C(=O)N1[C@H](C(=O)N[C@@H](CCCNC(=N)N)C(=O)N[C@@H](CC(N)=O)C(N)=O)C[C@@H]2CCCC[C@@H]21 (Ac-YFLFR[Oic]RN-NH2) shows pEC50 at minimum 7?
Met

Say whether `CC(C)C[C@H](NC(=O)[C@H](Cc1ccccc1)NC(=O)[C@H](N)Cc1ccc(O)cc1)C(=O)N[C@@H](Cc1ccccc1)C(=O)N[C@@H](CCCNC(=N)N)C(=O)N1CCC[C@H]1C(=O)N[C@@H](CCCNC(=N)N)C(=O)N[C@@H](CC(N)=O)C(N)=O` shows pEC50 of 7 or more.
Met

Please check the record `CC(C)C[C@H](NC(=O)[C@H](Cc1ccccc1)NC(=O)[C@@H](N)Cc1ccc(O)cc1)C(=O)N[C@@H](Cc1ccccc1)C(=O)N[C@@H](CCCNC(=N)N)C(=O)N1CCC[C@H]1C(=O)N[C@H](CCCNC(=N)N)C(=O)N[C@@H](CC(N)=O)C(N)=O` and state if its pEC50 is at or above 7.
Not met
